Tested on: K562
Assay: Cytotoxicity against human K562 cells after 72 hrs by calcein AM staining-based fluorescence assay
Format: functional, cell-based
Conditions: K562, 72 h
Consider the cut-off 60 µM. If the recorded IC50 is strictly smaller, the label is y; if not, the label is n.

smiles_entry | qualitative_label
CCOC(=O)n1nc(N)c(/N=N/c2ccc(O)cc2)c1N | n
CC(=O)n1nc(N)c(/N=N/c2ccc(O)cc2)c1N | n
Nc1n[nH]c(N)c1/N=N/c1cccc[n+]1[O-] | n

Here's an entry: Cn1nc(N)c(/N=N/c2ccc(O)cc2)c1N . Is its IC50 below 60 µM?
n

Check if IC50 falls below 60 µM for Nc1n[nH]c(N)c1/N=N/c1ccncc1 .
y

# strict comparison: is reported IC50 < 60 µM? input = Cn1nc(N)c(/N=N/c2ccncc2)c1N
n

Take the molecule Nc1n[nH]c(N)c1/N=N/c1cc[n+]([O-])cc1 and say whether its IC50 is less than 60 µM.
n

Given the entry Nc1n[nH]c(N)c1/N=N/c1ccc(O)cc1 , would its reported IC50 be below 60 µM?
y
